molecular target: Human erythrocyte AChE (Homo sapiens, UniProt P22303); construct: Human erythrocyte AChE, (%); purchased Sigma-Aldrich; host or cells: human erythrocytes; experiment: In vitro inhibition of AChE activity (spectrophotometric, ATCh iodide substrate); type: biochemical; conditions: read-out: Human erythrocyte AChE, (%) inhibition
Sequence (P22303 32-617 isoform P22303-2 limits assumed): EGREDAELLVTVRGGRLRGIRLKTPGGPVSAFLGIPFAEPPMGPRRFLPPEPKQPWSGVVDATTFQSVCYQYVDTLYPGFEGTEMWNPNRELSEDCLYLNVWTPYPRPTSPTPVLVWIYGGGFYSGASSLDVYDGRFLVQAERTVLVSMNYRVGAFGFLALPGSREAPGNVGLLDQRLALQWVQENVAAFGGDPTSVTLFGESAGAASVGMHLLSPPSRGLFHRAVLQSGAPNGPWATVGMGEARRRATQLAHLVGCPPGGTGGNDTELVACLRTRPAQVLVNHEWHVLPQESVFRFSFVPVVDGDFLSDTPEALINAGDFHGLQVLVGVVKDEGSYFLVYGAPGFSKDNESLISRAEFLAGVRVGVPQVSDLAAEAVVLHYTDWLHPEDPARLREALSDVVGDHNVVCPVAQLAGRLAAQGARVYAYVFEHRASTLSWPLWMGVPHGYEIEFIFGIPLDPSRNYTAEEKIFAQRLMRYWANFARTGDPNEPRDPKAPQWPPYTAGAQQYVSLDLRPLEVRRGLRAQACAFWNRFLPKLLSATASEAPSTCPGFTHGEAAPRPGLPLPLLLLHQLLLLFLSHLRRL
In this section, each of the molecules is paired with its reported inhibition at 20 µM.
observed property: inhibition at 20 µM

[[record]]
molecule = "O=P(OCc1ccccc1)(OCc1ccccc1)c1c2ccccc2nc2ccccc12 [Compound 2d]"
result = "10.8%"

[[record]]
molecule = "O=P(CCc1ccc(Cl)cc1)(CCc1ccc(Cl)cc1)c1c2ccccc2nc2ccccc12 [Compound 2f]"
result = "15.2%"

[[record]]
molecule = "O=P(CCc1ccc(Cl)cc1)(CCc1ccc(Cl)cc1)C1c2ccccc2Nc2ccccc21 [Compound 1f]"
result = "6.4%"

[[record]]
molecule = "CCOP(=O)(OCC)C1c2ccccc2Nc2ccccc21 [Compound 1b]"
result = "4.4%"

[[record]]
molecule = "O=P(Oc1ccccc1)(Oc1ccccc1)c1c2ccccc2nc2ccccc12 [Compound 2c]"
result = "12.4%"

[[record]]
molecule = "O=P(CCc1ccccc1)(CCc1ccccc1)c1c2ccccc2nc2ccccc12 [Compound 2e]"
result = "10.4%"

[[record]]
molecule = "CCOP(=O)(OCC)c1c2ccccc2nc2ccccc12 [Compound 2b]"
result = "10.4%"

[[record]]
molecule = "O=P(OCc1ccccc1)(OCc1ccccc1)C1c2ccccc2Nc2ccccc21 [Compound 1d]"
result = "7.6%"

[[record]]
molecule = "O=P(Oc1ccccc1)(Oc1ccccc1)C1c2ccccc2Nc2ccccc21 [Compound 1c]"
result = "6.3%"

[[record]]
molecule = "O=P(CCc1ccccc1)(CCc1ccccc1)C1c2ccccc2Nc2ccccc21 [Compound 1e]"
result = "8.8%"


====

target: Equine serum BChE (Equus caballus, UniProt P81908); construct: Equine serum BChE, (%); assay: In vitro inhibition of BChE activity (spectrophotometric, BTCh iodide substrate)
Sequence (P81908 whole entry): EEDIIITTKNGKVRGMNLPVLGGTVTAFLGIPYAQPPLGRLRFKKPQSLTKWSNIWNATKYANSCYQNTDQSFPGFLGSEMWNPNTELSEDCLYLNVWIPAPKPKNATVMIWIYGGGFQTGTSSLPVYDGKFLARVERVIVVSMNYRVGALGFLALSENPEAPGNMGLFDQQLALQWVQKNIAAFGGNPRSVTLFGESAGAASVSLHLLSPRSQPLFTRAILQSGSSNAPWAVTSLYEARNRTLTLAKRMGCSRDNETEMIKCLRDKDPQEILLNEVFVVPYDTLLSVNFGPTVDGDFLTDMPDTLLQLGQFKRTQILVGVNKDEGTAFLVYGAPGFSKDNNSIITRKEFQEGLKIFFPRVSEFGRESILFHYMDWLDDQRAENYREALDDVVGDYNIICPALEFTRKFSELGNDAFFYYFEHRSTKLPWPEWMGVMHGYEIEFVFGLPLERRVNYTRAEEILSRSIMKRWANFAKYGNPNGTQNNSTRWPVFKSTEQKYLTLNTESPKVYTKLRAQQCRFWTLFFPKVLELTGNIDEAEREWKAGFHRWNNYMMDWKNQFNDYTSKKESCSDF
Labelling field: enter TRUE if recorded IC50 is less than 3 µM. Enter FALSE if it equals or exceeds that cut-off.

[[record]]
compound = "O=P(OCc1ccccc1)(OCc1ccccc1)C1c2ccccc2Nc2ccccc21 [Compound 1d]"
class = "TRUE"

[[record]]
compound = "O=P(OCc1ccccc1)(OCc1ccccc1)c1c2ccccc2nc2ccccc12 [Compound 2d]"
class = "FALSE"

[[record]]
compound = "O=P(CCc1ccc(Cl)cc1)(CCc1ccc(Cl)cc1)C1c2ccccc2Nc2ccccc21 [Compound 1f]"
class = "FALSE"

[[record]]
compound = "O=P(Oc1ccccc1)(Oc1ccccc1)C1c2ccccc2Nc2ccccc21 [Compound 1c]"
class = "FALSE"

[[record]]
compound = "O=P(CCc1ccccc1)(CCc1ccccc1)C1c2ccccc2Nc2ccccc21 [Compound 1e]"
class = "FALSE"


====

target: β-amyloid (1-42) (Aβ42) (Homo sapiens); construct: purchased AnaSpec Inc; assay: Inhibition of Aβ42 self-aggregation, thioflavin T fluorescence method; type: biochemical; settings: Aβ42 50 µM, compound 100 µM, 24 h, 37°C; mean ± SEM, n = 3
In this section, each of the molecules is paired with its reported Inhibition of Aβ42 self-aggregation, (%).
observed property: Inhibition of Aβ42 self-aggregation, (%)

[[record]]
molecule = "CC[N+](C)(CC)CCC[n+]1c(-c2ccccc2)c2cc(N)ccc2c2ccc(N)cc21.[I-].[I-] [Propidium iodide, reference compound]"
observed_property = "Inhibition of Aβ42 self-aggregation, (%)"
numeric_result = 90.7

[[record]]
molecule = "COP(=O)(OC)c1c2ccccc2nc2ccccc12 [Compound 2a]"
observed_property = "Inhibition of Aβ42 self-aggregation, (%)"
numeric_result = 4.9

[[record]]
molecule = "COP(=O)(OC)C1c2ccccc2Nc2ccccc21 [Compound 1a]"
observed_property = "Inhibition of Aβ42 self-aggregation, (%)"
numeric_result = 4.9


====

biological target: β-amyloid (1-42) (Aβ42) (Homo sapiens, UniProt P05067); construct: purchased AnaSpec Inc; test: Inhibition of Aβ42 self-aggregation, thioflavin T fluorescence method; format: biochemical; settings: Aβ42 50 µM, compound 100 µM, 24 h, 37°C; mean ± SEM, n = 3
Sequence (P05067 672-713 limits assumed): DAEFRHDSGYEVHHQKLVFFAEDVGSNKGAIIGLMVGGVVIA
observed property: Inhibition of Aβ42 self-aggregation, (%)

[[record]]
molecule = "CCOP(=O)(OCC)c1c2ccccc2nc2ccccc12 [Compound 2b]"
result = "n.а"

[[record]]
molecule = "O=P(CCc1ccccc1)(CCc1ccccc1)c1c2ccccc2nc2ccccc12 [Compound 2e]"
result = "n.а"

[[record]]
molecule = "O=P(OCc1ccccc1)(OCc1ccccc1)c1c2ccccc2nc2ccccc12 [Compound 2d]"
result = "n.а"


This collection of values is drawn from paper PMC10466253.
